What follows is a collection of log10(EC50) values obtained with 5-hydroxytryptamine receptor 2C (Homo sapiens).
Log10 applied to EC50; unit prior to transform: nM.

Please tell me the measured log10(EC50) for NC[C@H]1C[C@@H]1c1c(OCC2CC2)ccc2c1CCO2 ; system: 5-hydroxytryptamine receptor 2C (Homo sapiens).
1.41

Please tell me the measured log10(EC50) for CCOc1ccc2occc2c1[C@H]1C[C@@H]1CN ; system: 5-hydroxytryptamine receptor 2C (Homo sapiens).
0.41

Please tell me the measured log10(EC50) for NC[C@H]1C[C@@H]1c1c(OCCF)ccc2c1CCO2 ; system: 5-hydroxytryptamine receptor 2C (Homo sapiens).
1.86

Please tell me the measured log10(EC50) for CCc1cc2c([C@@H]3C[C@H]3CN)c(OC)ccc2o1 ; system: 5-hydroxytryptamine receptor 2C (Homo sapiens).
2.00

Please tell me the measured log10(EC50) for C=CCOc1ccc2oc(CC)cc2c1[C@H]1C[C@@H]1CN ; system: 5-hydroxytryptamine receptor 2C (Homo sapiens).
1.36

====

Measured log(ratio) of individual entries
Molecular target: 5-hydroxytryptamine receptor 2C (Homo sapiens) (UniProt P28335)
Assay: Agonist activity at human 5-HT2C receptor expressed in human Flp-In-293 cells assessed as induction of calcium flux by measuring log (Emax/EC50) incubated for 1 hr by Fluo-4 direct dye based FLIPR assay
Format: functional, cell-based

Solved entries (count: 3):
CCOc1ccc2c(c1[C@H]1C[C@@H]1CN)CCO2 ... 8.59
COc1ccc2occc2c1[C@@H]1C[C@H]1CN ... 8.16
CCOc1ccc2c(c1[C@@H]1C[C@H]1CN)CCO2 ... 7.41

Give log(ratio) for the following molecule: CC(C)Oc1ccc2occc2c1[C@@H]1C[C@H]1CN
7.66

Give log(ratio) for the following molecule: COc1ccc2c(c1[C@H]1C[C@@H]1CN)CCO2
8.05

Give log(ratio) for the following molecule: COc1ccc2c(c1[C@@H]1C[C@H]1CN)CCO2
7.73

Give log(ratio) for the following molecule: CC(C)Oc1ccc2occc2c1[C@H]1C[C@@H]1CN
8.2

Give log(ratio) for the following molecule: COc1ccc2occc2c1[C@H]1C[C@@H]1CN
8.76

====

Target: 5-hydroxytryptamine receptor 2A (Homo sapiens, UniProt P28223)
Sequence (P28223 whole entry): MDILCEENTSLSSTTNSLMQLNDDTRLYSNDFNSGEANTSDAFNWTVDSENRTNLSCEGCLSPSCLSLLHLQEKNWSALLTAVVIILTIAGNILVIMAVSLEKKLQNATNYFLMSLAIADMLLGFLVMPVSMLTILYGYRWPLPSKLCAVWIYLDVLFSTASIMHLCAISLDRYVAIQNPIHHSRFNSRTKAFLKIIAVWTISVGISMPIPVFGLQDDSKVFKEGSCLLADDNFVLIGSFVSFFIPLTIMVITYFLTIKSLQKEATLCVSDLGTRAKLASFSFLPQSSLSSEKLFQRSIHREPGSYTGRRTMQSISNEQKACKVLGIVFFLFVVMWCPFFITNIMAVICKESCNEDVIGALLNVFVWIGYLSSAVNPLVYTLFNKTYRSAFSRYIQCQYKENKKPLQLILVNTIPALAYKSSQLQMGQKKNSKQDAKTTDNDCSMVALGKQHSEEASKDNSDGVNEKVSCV
Assay: Agonist activity at human 5-HT2A receptor expressed in human Flp-In-293 cells assessed as induction of calcium flux incubated for 1 hr by Fluo-4 direct dye based FLIPR assay relative to 5-HT
Type: functional, cell-based
Measured Emax of individual entries
Report as a plain number; the unit % is understood.

Solved entries (count: 3):
CCOc1ccc2occc2c1[C@@H]1C[C@H]1CN ... 15
CC(C)Oc1ccc2occc2c1[C@@H]1C[C@H]1CN ... 38
CCOc1ccc2c(c1[C@@H]1C[C@H]1CN)CCO2 ... 35

Query molecule follows.
Give Emax for the following molecule: NC[C@@H]1C[C@H]1c1c(OCCF)ccc2occc12
22

====

Biological target: 5-hydroxytryptamine receptor 2B (Homo sapiens, UniProt P41595)
Sequence (P41595 whole entry): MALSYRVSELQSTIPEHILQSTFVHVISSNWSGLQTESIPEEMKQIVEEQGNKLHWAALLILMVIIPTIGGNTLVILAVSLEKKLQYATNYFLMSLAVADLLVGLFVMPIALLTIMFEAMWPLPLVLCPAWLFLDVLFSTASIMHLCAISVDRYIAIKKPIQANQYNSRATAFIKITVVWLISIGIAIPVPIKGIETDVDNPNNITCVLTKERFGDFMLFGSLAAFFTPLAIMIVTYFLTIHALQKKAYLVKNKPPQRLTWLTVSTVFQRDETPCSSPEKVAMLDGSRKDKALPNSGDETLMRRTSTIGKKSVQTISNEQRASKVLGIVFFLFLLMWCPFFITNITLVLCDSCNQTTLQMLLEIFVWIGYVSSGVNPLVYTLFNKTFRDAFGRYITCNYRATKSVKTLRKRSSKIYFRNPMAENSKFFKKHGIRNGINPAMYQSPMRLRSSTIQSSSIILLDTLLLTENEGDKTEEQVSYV
Experiment: Agonist activity at human 5-HT2B receptor expressed in human Flp-In-293 cells assessed as induction of calcium flux by measuring log(Emax/EC50) incubated for 1 hr by Fluo-4 direct dye based FLIPR assay
Assay type: functional, cell-based
Measured log(ratio) of individual entries
The answer should be a number; do not append a unit.

Give log(ratio) for the following molecule: CCOc1ccc2c(c1[C@H]1C[C@@H]1CN)CCO2
7.03

Give log(ratio) for the following molecule: COc1ccc2c(c1[C@H]1C[C@@H]1CN)CCO2
6.96

Give log(ratio) for the following molecule: COc1ccc2c(c1[C@@H]1C[C@H]1CN)CCO2
6.21

Give log(ratio) for the following molecule: CC(C)Oc1ccc2occc2c1[C@H]1C[C@@H]1CN
6.35

====

Measured log(ratio) of individual entries
Target: 5-hydroxytryptamine receptor 2A (Homo sapiens, UniProt P28223)
Test: Agonist activity at human 5-HT2A receptor expressed in human Flp-In-293 cells assessed as induction of calcium flux by measuring log(Emax/EC50) incubated for 1 hr by Fluo-4 direct dye based FLIPR assay
Type: functional, cell-based

CC(C)Oc1ccc2occc2c1[C@@H]1C[C@H]1CN ... 5.61
CCOc1ccc2c(c1[C@@H]1C[C@H]1CN)CCO2 ... 5.55

Give log(ratio) for the following compound: COc1ccc2occc2c1[C@@H]1C[C@H]1CN
6.78

Give log(ratio) for the following compound: COc1ccc2c(c1[C@@H]1C[C@H]1CN)CCO2
6.35

Give log(ratio) for the following compound: CC(C)Oc1ccc2occc2c1[C@H]1C[C@@H]1CN
6.42

Give log(ratio) for the following compound: CCOc1ccc2c(c1[C@H]1C[C@@H]1CN)CCO2
6.86

Give log(ratio) for the following compound: COc1ccc2c(c1[C@H]1C[C@@H]1CN)CCO2
6.89

Give log(ratio) for the following compound: COc1ccc2occc2c1[C@H]1C[C@@H]1CN
7.37

====

Measured Emax of individual entries
Molecular target: 5-hydroxytryptamine receptor 2C (Homo sapiens) (UniProt P28335)
Sequence (whole entry): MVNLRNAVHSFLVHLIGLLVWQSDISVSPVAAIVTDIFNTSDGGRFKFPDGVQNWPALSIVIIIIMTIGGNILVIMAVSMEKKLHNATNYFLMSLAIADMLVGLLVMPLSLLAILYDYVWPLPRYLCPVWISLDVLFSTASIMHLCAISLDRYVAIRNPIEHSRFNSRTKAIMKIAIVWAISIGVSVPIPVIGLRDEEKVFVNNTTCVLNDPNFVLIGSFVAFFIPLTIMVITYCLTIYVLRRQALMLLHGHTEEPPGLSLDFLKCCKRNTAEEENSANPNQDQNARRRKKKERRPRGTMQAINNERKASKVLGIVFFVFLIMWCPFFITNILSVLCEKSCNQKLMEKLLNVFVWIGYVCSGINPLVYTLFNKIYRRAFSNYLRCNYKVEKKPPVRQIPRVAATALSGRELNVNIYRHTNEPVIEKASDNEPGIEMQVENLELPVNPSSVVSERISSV
Assay: Agonist activity at human 5-HT2C INI receptor expressed in human HEK293 cells assessed as induction of beta-arrestin-2 recruitment incubated for 20 hrs by Tango assay relative to 5HT
Assay type: cell-based
Settings: filed as agonist
Report as a plain number; the unit % is understood.

Solved entries (count: 2):
CCc1cc2c([C@H]3C[C@@H]3CN)c(OCCF)ccc2o1 ... 50
C[C@H](N)Cn1ccc2cc(F)c(Cl)cc21 ... 87

Give Emax for the following molecule: NC[C@H]1C[C@@H]1c1c(OCCF)ccc2c1CCO2
42

Give Emax for the following molecule: C[C@H]1CNCCc2ccc(Cl)cc21
91

====

Measured Emax of individual entries
Target: 5-hydroxytryptamine receptor 2C (Homo sapiens) (UniProt P28335)
Experiment: Agonist activity at human 5-HT2C receptor expressed in human Flp-In-293 cells assessed as induction of calcium flux incubated for 1 hr by Fluo-4 direct dye based FLIPR assay relative to 5-HT
Format: functional, cell-based
Conditions: filed as agonist
Report as a plain number; the unit % is understood.

Solved entries (count: 5):
CCCOc1ccc2c(c1[C@H]1C[C@@H]1CN)CCO2 ... 104
CCCOc1ccc2occc2c1[C@H]1C[C@@H]1CN ... 98
C=CCOc1ccc2occc2c1[C@H]1C[C@@H]1CN ... 103
CCOc1ccc2c(c1[C@H]1C[C@@H]1CN)CCO2 ... 106
C=CCOc1ccc2c(c1[C@H]1C[C@@H]1CN)CCO2 ... 101

Give Emax for the following molecule: NC[C@H]1C[C@@H]1c1c(OCCF)ccc2c1CCO2
76

Give Emax for the following molecule: NC[C@@H]1C[C@H]1c1c(OCCF)ccc2c1CCO2
79

Give Emax for the following molecule: COc1ccc2c(c1[C@H]1C[C@@H]1CN)CCO2
101

Give Emax for the following molecule: NC[C@@H]1C[C@H]1c1c(OCCF)ccc2occc12
98

Give Emax for the following molecule: CCOc1ccc2oc(CC)cc2c1[C@H]1C[C@@H]1CN
100

Give Emax for the following molecule: COc1ccc2occc2c1[C@H]1C[C@@H]1CN
93

Give Emax for the following molecule: CCOc1ccc2occc2c1[C@H]1C[C@@H]1CN
106

====

Biological target: 5-hydroxytryptamine receptor 2A (Homo sapiens, UniProt P28223)
Field 'label' (enum: MET / NOT MET). Set to MET when EC50 is strictly under 0.6 µM; else NOT MET.

Solved cases (6 shown):
C=C(F)COc1ccc2occc2c1[C@H]1C[C@@H]1CN ... MET
CCOc1ccc2c(c1[C@H]1C[C@@H]1CN)CCO2 ... MET
NC[C@H]1C[C@@H]1c1c(OCC2CC2)ccc2occc12 ... MET
COc1ccc2c(c1[C@H]1C[C@@H]1CN)CCO2 ... MET
CCCOc1ccc2occc2c1[C@H]1C[C@@H]1CN ... MET
CCc1cc2c([C@H]3C[C@@H]3CN)c(OC)ccc2o1 ... NOT MET

State whether 0.6 µM exceeds EC50 recorded for NC[C@H]1C[C@@H]1c1c(OCCF)ccc2c1CCO2 .
NOT MET

State whether 0.6 µM exceeds EC50 recorded for C=CCOc1ccc2occc2c1[C@H]1C[C@@H]1CN .
MET
